Data origin: PubChem BioAssay AID2060906

As shown below, each of these compounds has a reported viability, T/C value.
# Test system: 485176-168-R4-J1-PDC complex spheroid growth
# assay_text: Anticancer human tumor 485176-168-R4-J1-PDC patient-derived pancreatic adenocarcinoma cell line growth inhibition [RAS]
# setup_conditions: second compound 0.0949 µM; first compound 0.01 µM; stronger effect = lower value

{"compound": "Nc1ccn(C2OC(CO)C(O)C2(F)F)c(=O)n1 (stereo not drawn) + CCn1c(-c2cccnc2C(C)OC)c2c3cc(ccc31)N1CCOC(CC(NC(=O)C(C(C)C)N(C)C(=O)C3(F)CCN(C(=O)C#CC(C)(C)N(C)C)CC3)C(=O)N3CCCC(N3)C(=O)OCC(C)(C)C2)C1", "viability, T/C, %": 66.9}
{"compound": "CCN1CCN(Cc2ccc(Nc3ncc(F)c(-c4cc(F)c5nc(C)n(C(C)C)c5c4)n3)nc2)CC1 + CCn1c(-c2cc(N3CCN(C)CC3)cnc2C(C)OC)c2c3cc(ccc31)-c1csc(n1)CC(NC(=O)C1CC1C)C(=O)N1CCCC(N1)C(=O)OCC(C)(C)C2", "viability, T/C, %": 74.7}
{"compound": "C=CC(=O)Nc1cc(Nc2nccc(-c3cn(C)c4ccccc34)n2)c(OC)cc1N(C)CCN(C)C + CCn1c(-c2cc(N3CCN(C)CC3)cnc2C(C)OC)c2c3cc(ccc31)-c1csc(n1)CC(NC(=O)C1CC1C)C(=O)N1CCCC(N1)C(=O)OCC(C)(C)C2", "viability, T/C, %": 83}
{"compound": "O=C(c1ccc(F)c(F)c1Nc1ccc(I)cc1F)N1CC(O)([C@@H]2CCCCN2)C1 + CCn1c(-c2cccnc2C(C)OC)c2c3cc(ccc31)N1CCOC(CC(NC(=O)C(C(C)C)N(C)C(=O)C3(F)CCN(C(=O)C#CC(C)(C)N(C)C)CC3)C(=O)N3CCCC(N3)C(=O)OCC(C)(C)C2)C1", "viability, T/C, %": 64.1}
{"compound": "C=CC(=O)Nc1cc(Nc2nccc(-c3cn(C)c4ccccc34)n2)c(OC)cc1N(C)CCN(C)C + CCn1c(-c2cccnc2C(C)OC)c2c3cc(ccc31)N1CCOC(CC(NC(=O)C(C(C)C)N(C)C(=O)C3(F)CCN(C(=O)C#CC(C)(C)N(C)C)CC3)C(=O)N3CCCC(N3)C(=O)OCC(C)(C)C2)C1", "viability, T/C, %": 77.9}
{"compound": "C=CC(=O)N1CCN(c2nc(OCC3CCCN3C)nc3c(F)c(-c4nc(N)cc(C)c4C(F)(F)F)c(Cl)cc23)C(C)C1 (stereo not drawn) + CCn1c(-c2cc(N3CCN(C)CC3)cnc2C(C)OC)c2c3cc(ccc31)-c1csc(n1)CC(NC(=O)C1CC1C)C(=O)N1CCCC(N1)C(=O)OCC(C)(C)C2", "viability, T/C, %": 105}
{"compound": "O=C(c1ccc(F)c(F)c1Nc1ccc(I)cc1F)N1CC(O)([C@@H]2CCCCN2)C1 + CCn1c(-c2cc(N3CCN(C)CC3)cnc2C(C)OC)c2c3cc(ccc31)-c1csc(n1)CC(NC(=O)C1CC1C)C(=O)N1CCCC(N1)C(=O)OCC(C)(C)C2", "viability, T/C, %": 56.9}
{"compound": "CC(C)n1nc(-c2ccc3oc(N)nc3c2)c2c(N)ncnc21 + CCn1c(-c2cccnc2C(C)OC)c2c3cc(ccc31)N1CCOC(CC(NC(=O)C(C(C)C)N(C)C(=O)C3(F)CCN(C(=O)C#CC(C)(C)N(C)C)CC3)C(=O)N3CCCC(N3)C(=O)OCC(C)(C)C2)C1", "viability, T/C, %": 65}

###

# Tested on: 485176-168-R4-J1-PDC complex spheroid growth
# assay_text: Anticancer human tumor 485176-168-R4-J1-PDC cell line growth inhibition [RAS];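 also: spheroids exposed to compounds for seven days before readout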
# setup_conditions: curve of first compound; second compound 0.3 µM
Reported IC50 values for the following compounds.

{"compound": "CC1(O)CCCC1n1c(=O)c(C(F)F)cc2cnc(NC3CCN(S(C)(=O)=O)CC3)nc21 (centres undefined) + CCn1c(-c2cccnc2C(C)OC)c2c3cc(ccc31)N1CCOC(CC(NC(=O)C(C(C)C)N(C)C(=O)C3(F)CCN(C(=O)C#CC(C)(C)N(C)C)CC3)C(=O)N3CCCC(N3)C(=O)OCC(C)(C)C2)C1", "unit_text": "nM", "IC50": 1680}
{"compound": "CCc1c2c(nc3ccc(O)cc13)-c1cc3c(c(=O)n1C2)COC(=O)[C@]3(O)CC + CCn1c(-c2cc(N3CCN(C)CC3)cnc2C(C)OC)c2c3cc(ccc31)-c1csc(n1)CC(NC(=O)C1CC1C)C(=O)N1CCCC(N1)C(=O)OCC(C)(C)C2", "unit_text": "nM", "IC50": 7.16}
{"compound": "CC(C)n1nc(-c2ccc3oc(N)nc3c2)c2c(N)ncnc21 + CCn1c(-c2cc(N3CCN(C)CC3)cnc2C(C)OC)c2c3cc(ccc31)-c1csc(n1)CC(NC(=O)C1CC1C)C(=O)N1CCCC(N1)C(=O)OCC(C)(C)C2", "unit_text": "nM", "IC50": 9.46}
{"compound": "CCC(CC)c1cc(NC2CCC(N)C2)n2nccc2n1 (centres undefined) + CCn1c(-c2cc(N3CCN(C)CC3)cnc2C(C)OC)c2c3cc(ccc31)-c1csc(n1)CC(NC(=O)C1CC1C)C(=O)N1CCCC(N1)C(=O)OCC(C)(C)C2", "unit_text": "nM", "IC50": 1000}

###

# Test system: 485176-168-R4-J1-PDC complex spheroid growth
# assay_text: Anticancer human tumor 485176-168-R4-J1-PDC cell line growth inhibition [RAS];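 also: spheroids exposed to compounds for seven days before readout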
# setup_conditions: curve of first compound; second compound 0.0949 µM
Known IC50 of a selection of molecules

{"molecule": "CCN1CCN(Cc2ccc(Nc3ncc(F)c(-c4cc(F)c5nc(C)n(C(C)C)c5c4)n3)nc2)CC1 + CCn1c(-c2cccnc2C(C)OC)c2c3cc(ccc31)N1CCOC(CC(NC(=O)C(C(C)C)N(C)C(=O)C3(F)CCN(C(=O)C#CC(C)(C)N(C)C)CC3)C(=O)N3CCCC(N3)C(=O)OCC(C)(C)C2)C1", "IC50": "> 1000 nM"}
{"molecule": "NC1c2ccccc2OC12CCN(c1cnc3c(N4CCCc5ncccc54)n[nH]c3n1)CC2 (centres undefined) + CCn1c(-c2cc(N3CCN(C)CC3)cnc2C(C)OC)c2c3cc(ccc31)-c1csc(n1)CC(NC(=O)C1CC1C)C(=O)N1CCCC(N1)C(=O)OCC(C)(C)C2", "IC50": "> 10000 nM"}
{"molecule": "CC(C)n1nc(-c2ccc3oc(N)nc3c2)c2c(N)ncnc21 + CCn1c(-c2cccnc2C(C)OC)c2c3cc(ccc31)N1CCOC(CC(NC(=O)C(C(C)C)N(C)C(=O)C3(F)CCN(C(=O)C#CC(C)(C)N(C)C)CC3)C(=O)N3CCCC(N3)C(=O)OCC(C)(C)C2)C1", "IC50": "17.4 nM"}
{"molecule": "C[C@@H](NC(=O)c1ncnc(N)c1Cl)c1ncc(C(=O)Nc2cc(C(F)(F)F)c(Cl)cn2)s1 + CCn1c(-c2cccnc2C(C)OC)c2c3cc(ccc31)N1CCOC(CC(NC(=O)C(C(C)C)N(C)C(=O)C3(F)CCN(C(=O)C#CC(C)(C)N(C)C)CC3)C(=O)N3CCCC(N3)C(=O)OCC(C)(C)C2)C1", "IC50": "> 10000 nM"}

###

# Tested on: 485176-168-R4-J1-PDC complex spheroid growth
# assay_text: Anticancer human tumor 485176-168-R4-J1-PDC cell line growth inhibition [RAS];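 also: spheroids exposed to compounds for seven days before readout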;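 as to viability, T/C: luminescence viability expressed relative to DMSO vehicle wells set as 100%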
# setup_conditions: second compound 1 µM; first compound 0.0949 µM; stronger effect = lower value
Catalogue of viability, T/C readings, one per entry.
recorded_endpoint: viability, T/C (%)

{"compound": "CC1(C)CCC(Nc2ncc(C(F)(F)F)c(-c3c[nH]c4c(P(C)(C)=O)c(C#N)ccc34)n2)CN1 (centres undefined) + C=CC(=O)N1CCN(c2nc(OCC3CCCN3C)nc3c(F)c(-c4nc(N)cc(C)c4C(F)(F)F)c(Cl)cc23)C(C)C1", "target_system": "485176-168-R4-J1-PDC complex spheroid growth", "meas_value": 52.2}
{"compound": "CC1(C)CCC(Nc2ncc(C(F)(F)F)c(-c3c[nH]c4c(P(C)(C)=O)c(C#N)ccc34)n2)CN1 (centres undefined) + C#Cc1c(F)ccc2cc(O)cc(-c3ncc4c(N5CC6CCC(C5)N6)nc(OCC56CCCN5CC(F)C6)nc4c3F)c12", "target_system": "485176-168-R4-J1-PDC complex spheroid growth", "meas_value": 53.5}
{"compound": "CCc1c2c(nc3ccc(O)cc13)-c1cc3c(c(=O)n1C2)COC(=O)[C@]3(O)CC + C=CC(=O)N1CCN(c2nc(OCC3CCCN3C)nc3c(F)c(-c4nc(N)cc(C)c4C(F)(F)F)c(Cl)cc23)C(C)C1", "target_system": "485176-168-R4-J1-PDC complex spheroid growth", "meas_value": 10.5}
{"compound": "CCc1c2c(nc3ccc(O)cc13)-c1cc3c(c(=O)n1C2)COC(=O)[C@]3(O)CC + C#Cc1c(F)ccc2cc(O)cc(-c3ncc4c(N5CC6CCC(C5)N6)nc(OCC56CCCN5CC(F)C6)nc4c3F)c12", "target_system": "485176-168-R4-J1-PDC complex spheroid growth", "meas_value": 15.9}
